Test system: stress ulcer formation in rats
TEST DESCRIPTION: WIS: Restraint and Water Immersion Stress-Induced Ulcer Inhibition Test
Type: in vivo, rat (male Crj:SD or Slc:SD)
STATED CONDITIONS: 100 mg/kg oral, 10 minutes before 7 h restraint and water immersion (21° C.)
Documented WIS: ulcer formation inhibitory rate across a set of compounds
Report as a plain number; the unit % is understood.

Example results:
{"columns": ["SMILES STRUCTURE", "MEASURED ON", "ASSAY READOUT", "RECORDED MEASUREMENT"],
 "data": [
  ["CC(C)=CCC/C(C)=C/COc1ccc(C(=O)NCCN(C(C)C)C(C)C)cc1CC(C)C", "stress ulcer formation in rats", "WIS: ulcer formation inhibitory rate", 48],
  ["CC(C)COc1ccc(C(=O)NCCN(C(C)C)C(C)C)cc1", "stress ulcer formation in rats", "WIS: ulcer formation inhibitory rate", 98],
  ["CCN(CC)CCNC(=O)c1ccc(OCC=C(C)C)nc1", "stress ulcer formation in rats", "WIS: ulcer formation inhibitory rate", 65],
  ["CCN(CC)CCNC(=O)c1ccc(OC/C=C(\\C)CCC=C(C)C)c(OC/C=C(\\C)CCC=C(C)C)c1", "stress ulcer formation in rats", "WIS: ulcer formation inhibitory rate", 37],
  ["CC(C)=CCC/C(C)=C/CN(C/C=C(\\C)CCC=C(C)C)c1ccc(C(=O)NCCN(C(C)C)C(C)C)cc1", "stress ulcer formation in rats", "WIS: ulcer formation inhibitory rate", 45]
]}

QUERY: Lookup: WIS: ulcer formation inhibitory rate / stress ulcer formation in rats / "CCN(CC)CCNC(=O)c1cccc(OC)c1OC/C=C(\C)CCC=C(C)C"
RESULT: 73

QUERY: Lookup: WIS: ulcer formation inhibitory rate / stress ulcer formation in rats / "CCN(CC)CCNC(=O)c1ccc(OCC=C(C)C)cc1OCC=C(C)C"
RESULT: 67

QUERY: Lookup: WIS: ulcer formation inhibitory rate / stress ulcer formation in rats / "CCCCN(C)CCNC(=O)c1ccc(OC/C=C(\C)CCC=C(C)C)cc1"
RESULT: 45

---

Test system: isolated gastric fundic gland
TEST DESCRIPTION: CAP: Acid Secretion Inhibition Test In Vitro ([14C]-aminopyrine uptake)
Format: cell-based, rabbit (male Japanese White)
STATED CONDITIONS: Oryctolagus cuniculus; final concentration 10^-5 M; histamine 10^-5 M stimulation; read-out: CAP: acid secretion inhibitory rate
ASSAY READOUT: inhibition at 10 µM
Units required after the number.

Example results:
{"columns": ["MOLECULE", "inhibition at 10 µM"],
 "data": [
  ["CCCCN(C)CCNC(=O)c1ccc(OC/C=C(\\C)CCC=C(C)C)cc1 [Example 11]", "100%"],
  ["CC(C)N(CCNC(=O)c1cccc(CN2CCCCC2)c1)C(C)C [Example 66]", "38.3%"],
  ["CC(C)=CCC/C(C)=C/CN(C/C=C(\\C)CCC=C(C)C)c1ccc(C(=O)NCCN(C(C)C)C(C)C)cc1 [Example 27]", "38.5%"],
  ["CCN(CC)CCNC(=O)c1cccnc1OC/C=C(\\C)CCC=C(C)C [Example 52]", "101%"],
  ["CC(C)=CCC/C(C)=C/COc1ccc(C(=O)NCCN(C)C(C)(C)C)cc1 [Example 12]", "99.9%"],
  ["CC(C)=CCC/C(C)=C/COc1ccc(C(=O)NCCN(C(C)C)C(C)C)cc1CC(C)C [Example 34]", "100%"],
  ["CCN(CC)CCNC(=O)c1ccc(OC/C=C(\\C)CCC=C(C)C)c(OC)c1 [Example 30]", "100%"],
  ["CCN(CC)CCNC(=O)c1ccc(OC/C=C(\\C)CCC=C(C)C)nc1 [Example 50]", "95.2%"],
  ["CCN(CC)CCNC(=O)c1ccc(OC)c(OC/C=C(\\C)CCC=C(C)C)c1 [Example 29]", "100%"],
  ["CCN(CC)CCNC(=O)c1cc(OCC=C(C)C)ccc1OCC=C(C)C [Example 21]", "100%"]
]}

QUERY: Tell me the measured inhibition at 10 µM of CCCCCCCCc1ccc(C(=O)NCCN(C(C)C)C(C)C)cc1 [Example 63] , please.
RESULT: 101%

QUERY: Tell me the measured inhibition at 10 µM of CC(C)N(CCNC(=O)c1ccc(C(C)(C)C)cc1)C(C)C [Example 61] , please.
RESULT: 97.3%

QUERY: Tell me the measured inhibition at 10 µM of CCN(CC)CCNC(=O)c1ccccc1SC/C=C(\C)CCC=C(C)C [Example 25] , please.
RESULT: 96.1%

QUERY: Tell me the measured inhibition at 10 µM of CCN(CC)CCNC(=O)c1cc(OC/C=C(\C)CCC=C(C)C)ccc1OC/C=C(\C)CCC=C(C)C [Example 16] , please.
RESULT: 100%

QUERY: Tell me the measured inhibition at 10 µM of CC(C)N(CCNC(=O)c1ccc(NC(=O)C(C)(C)C)cc1)C(C)C [Example 69] , please.
RESULT: 31.5%

QUERY: Tell me the measured inhibition at 10 µM of CCN(CC=C(C)C)c1ccc(C(=O)NCCN(C(C)C)C(C)C)cc1 [Example 28] , please.
RESULT: 27.3%

QUERY: Tell me the measured inhibition at 10 µM of CCN(CC)CCNC(=O)c1ccc(OCC=C(C)C)c(OCC=C(C)C)c1 [Example 22] , please.
RESULT: 99.8%

QUERY: Tell me the measured inhibition at 10 µM of CCN(CC)CCNC(=O)c1ccc(OC/C=C(\C)CC/C=C(\C)CCC=C(C)C)cc1 [Example 6] , please.
RESULT: 97.9%

---

Documented WIS: ulcer formation inhibitory rate across a set of compounds
System: stress ulcer formation in rats
TEST DESCRIPTION: WIS: Restraint and Water Immersion Stress-Induced Ulcer Inhibition Test
Format: in vivo, rat (male Crj:SD or Slc:SD)
STATED CONDITIONS: 100 mg/kg oral, 10 minutes before 7 h restraint and water immersion (21° C.)
Report as a plain number; the unit % is understood.

Example results:
{"columns": ["COMPOUND", "MEASURED ON", "RECORDED MEASUREMENT"],
 "data": [
  ["CC(C)=CCC/C(C)=C/CNc1ccc(C(=O)NCCN(C(C)C)C(C)C)cc1 [Example 26]", "stress ulcer formation in rats", 49],
  ["CCN(CC)CCNC(=O)c1cc(OC)c(OCC=C(C)C)c(OC)c1 [Example 36]", "stress ulcer formation in rats", 88]
]}

QUERY: Tell me the measured WIS: ulcer formation inhibitory rate of CCN(CC)CCNC(=O)c1cc(OCC=C(C)C)ccc1OCC=C(C)C [Example 21] , please.
RESULT: 77

QUERY: Tell me the measured WIS: ulcer formation inhibitory rate of CCN(CC)CCNC(=O)c1ccc(OC/C=C(\C)CCC=C(C)C)cc1OC/C=C(\C)CCC=C(C)C [Example 15] , please.
RESULT: 92

QUERY: Tell me the measured WIS: ulcer formation inhibitory rate of CCN(CC)CCNC(=O)c1cc(F)ccc1OC/C=C(\C)CCC=C(C)C [Example 35] , please.
RESULT: 81

QUERY: Tell me the measured WIS: ulcer formation inhibitory rate of CC(C)=CCC/C(C)=C/COc1ccc(C(=O)NCCN(C(C)C)C(C)C)cc1 [Example 7] , please.
RESULT: 84

QUERY: Tell me the measured WIS: ulcer formation inhibitory rate of CC(C)=CCC/C(C)=C/COc1ccc(C(=O)NCCN(C(C)C)C(C)C)cn1 [Example 51] , please.
RESULT: 72

QUERY: Tell me the measured WIS: ulcer formation inhibitory rate of CCN(CC)CCNC(=O)c1cccc(OC/C=C(\C)CCC=C(C)C)c1 [Example 1] , please.
RESULT: 72

QUERY: Tell me the measured WIS: ulcer formation inhibitory rate of CCCCCCCCc1ccc(C(=O)NCCN(C(C)C)C(C)C)cc1 [Example 63] , please.
RESULT: 49

QUERY: Tell me the measured WIS: ulcer formation inhibitory rate of CC(C)N(CCNC(=O)c1cccc(CN2CCCCC2)c1)C(C)C [Example 66] , please.
RESULT: 53

QUERY: Tell me the measured WIS: ulcer formation inhibitory rate of CCN(CC)CCNC(=O)c1cc(OC/C=C(\C)CCC=C(C)C)cc(OC/C=C(\C)CCC=C(C)C)c1 [Example 19] , please.
RESULT: 69

---

System: stress ulcer formation in rats
TEST DESCRIPTION: WIS: Restraint and Water Immersion Stress-Induced Ulcer Inhibition Test
Format: in vivo, rat (male Crj:SD or Slc:SD)
STATED CONDITIONS: 100 mg/kg oral, 10 minutes before 7 h restraint and water immersion (21° C.)
Mark Yes for reported WIS: ulcer formation inhibitory rate of 80% or greater; mark No for anything smaller.

Please review the following examples before continuing.
{"columns": ["SMILES STRUCTURE", "ASSIGNED CATEGORY"],
 "data": [
  ["CCN(CC)CCNC(=O)c1ccc(OC/C=C(\\C)CCC=C(C)C)cc1", "Yes"],
  ["CCN(CC=C(C)C)c1ccc(C(=O)NCCN(C(C)C)C(C)C)cc1", "Yes"],
  ["CC(C)=CCC/C(C)=C/COc1ccc(C(=O)NCCN(C)C(C)(C)C)cc1", "No"],
  ["CCN(CC)CCNC(=O)c1cc(OC)ccc1OC/C=C(\\C)CCC=C(C)C", "No"],
  ["COc1cc(C(=O)NCCN(C)C)cc(OC)c1OC/C=C(\\C)CCC=C(C)C", "Yes"]
]}

QUERY: Hi, just wondering whether "CC(C)Oc1ccc(C(=O)NCCN(C(C)C)C(C)C)cc1" shows WIS: ulcer formation inhibitory rate of 80% or higher.
RESULT: Yes

QUERY: Hi, just wondering whether "CCN(CC)CCNC(=O)c1ccc(OC/C=C(\C)CC/C=C(\C)CCC=C(C)C)cc1" shows WIS: ulcer formation inhibitory rate of 80% or higher.
RESULT: No

QUERY: Hi, just wondering whether "CCN(CC)CCNC(=O)c1ccc(OCC=C(C)C)cc1" shows WIS: ulcer formation inhibitory rate of 80% or higher.
RESULT: Yes

QUERY: Hi, just wondering whether "CC(C)=CCOc1cccnc1C(=O)NCCN(C(C)C)C(C)C" shows WIS: ulcer formation inhibitory rate of 80% or higher.
RESULT: Yes

QUERY: Hi, just wondering whether "CC(C)=CCC/C(C)=C/COc1ccccc1C(=O)NCCN(C)C" shows WIS: ulcer formation inhibitory rate of 80% or higher.
RESULT: No

// data source = patent US6001880A
